- assayProtocol: protein stability index of a GFP-peptide fusion (GPS, HEK-293T) (PSI 1-6); higher = more stable;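 note: 24-mer peptide tiles fused after GFP, lentivirally expressed, FACS-sorted into six equal bins by GFP/DsRed ratio, decoded by Illumina sequencing, PSI is the read-weighted mean bin number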
- conditionSummary: treatment: MLN4924 1 uM, 8 h; c terminus: a fixed tail appended
measuredParameter: protein stability index
Respond numerically, and do not add a unit to the figure.

So, ITNTDVDCLKACQEQIEAVLLNSL [CCND2] ? Its protein stability index was 2.86

---

- assayProtocol: protein stability index of a GFP-peptide fusion (GPS, HEK-293T) (PSI 1-6); higher = more stable
- conditionSummary: treatment: MLN4924 1 uM, 8 h; c terminus: a fixed tail appended
Binary call on protein stability index: 1 from 3 upward, 0 beneath that.

A selection of reference data follows.
{"monomerSequence": "FEDLNKRKDTKEIYTHFTCATDTK [GNAI1]", "discreteLabel": 1}
{"monomerSequence": "TVLLEEETLEASVGPRETEEKVRD [TOR1AIP2]", "discreteLabel": 1}
{"monomerSequence": "PDSELSPCIPPGFRNLVADRVLNY [SPAG8]", "discreteLabel": 1}
{"monomerSequence": "YDLDKIIELNGGQPPLTYKRFQTL [CRY1]", "discreteLabel": 0}
{"monomerSequence": "DLEDPLGGLLSYDEGGITKQPPVT [FBF1]", "discreteLabel": 1}

Moving on to the next sequence.
API: above_or_equal(metric=protein stability index, cutoff=3) for item QSSHYLQWILDKQDLLKERQKDLK [CCNC] 1

---

- assayProtocol: protein stability index of a GFP-peptide fusion (GPS, HEK-293T) (PSI 1-6); higher = more stable
- conditionSummary: treatment: MLN4924 1 uM, 8 h; c terminus: a fixed tail appended
measuredParameter: protein stability index
Number only, no unit.

# count of solved cases: 3
{"monomerSequence": "LHESYCMDTSHQPLLPAPPKTPMD [LYSMD4]", "measured": 4.59}
{"monomerSequence": "IRDLDVVVVSVAGAFRKGKSFILD [ATL3]", "measured": 2.34}
{"monomerSequence": "SWIKMTKLEYEEIALDLTPVIEEL [FAN1]", "measured": 2.7}

GSGPIQLWQFLLELLTDKSCQSFI [ETS1] has a reported protein stability index of 2.94

The reported protein stability index of the sequence AVLEYLYTGMFTSSPDLDDMKLII [RHOBTB2] was 2.53

Reported protein stability index for ISDNPERYSTNLSNHVDDFTTFRG [EDNRA] was 3.95

---

- assayProtocol: protein stability index of a GFP-peptide fusion (GPS, HEK-293T) (PSI 1-6); higher = more stable
- conditionSummary: treatment: MLN4924 1 uM, 8 h; c terminus: a fixed tail appended
# label = Met if protein stability index >= 4 else Not met

Take a look at these entries with their results.
{"monomerSequence": "PRPQSEESWDEEDKRNYPSLELDK [CHGB]", "discreteLabel": "Met"}
{"monomerSequence": "KNANRPLLDEIVPVYRRDCHEEVY [ACBD3]", "discreteLabel": "Not met"}
{"monomerSequence": "GFIRHTVNKITFSEQCYYIFGDLC [DVL3]", "discreteLabel": "Not met"}

Decide: protein stability index of NEYLLNLVATNAHLDHYYQEELPA [FCHSD1] >= 4? Not met

Quick check: does AEEWYKSKYADLSDAANRNHEALR [PRPH] have protein stability index greater than or equal to 4? Met

Hi, just wondering whether SAYISNYAFANVFHGWKYMFGLVI [SLC2A12] shows protein stability index of 4 or higher. Not met

Answer whether protein stability index of GKEQGQNLARQWNNCAFLESSAKS [RAP1B] is greater than or equal to 4. Met

Decide: protein stability index of TGERPHQCIECGKSFNRHCNLIRH [ZSCAN9] >= 4? Not met

Has NLFCVLRLVVEFPATGGAIPSWQI [PKD2L1] a recorded protein stability index greater than or equal to 4? Not met

Is it the case that IARDQTKSIVEKIQAKLPGIAKKK [RTN3] has protein stability index reaching or exceeding 4? Not met

Could you verify whether the entry TYEKLSRAMRYYYKREILERVDGR [ELF3] shows protein stability index of no less than 4? Not met

Reported protein stability index reaches at least 4 for KPYDPPGEKMVAAKVKGEKLDKKL [ATF4] ? Met
